# target desc: CCK B (Mus musculus, UniProt P56481)
# Sequence (P56481 1-453): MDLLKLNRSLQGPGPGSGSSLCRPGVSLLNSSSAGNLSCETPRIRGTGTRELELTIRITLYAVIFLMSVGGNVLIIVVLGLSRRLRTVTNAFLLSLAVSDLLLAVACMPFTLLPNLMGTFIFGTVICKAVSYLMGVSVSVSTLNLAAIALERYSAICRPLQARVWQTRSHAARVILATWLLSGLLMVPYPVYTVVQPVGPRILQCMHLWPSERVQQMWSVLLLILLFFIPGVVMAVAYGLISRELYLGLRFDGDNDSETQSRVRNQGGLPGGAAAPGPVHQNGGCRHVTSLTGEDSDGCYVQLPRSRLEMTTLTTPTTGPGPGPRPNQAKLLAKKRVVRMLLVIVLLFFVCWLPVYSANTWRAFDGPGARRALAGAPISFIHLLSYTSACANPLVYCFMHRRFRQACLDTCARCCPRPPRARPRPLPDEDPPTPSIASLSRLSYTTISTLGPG
Catalogue of molecules with associated log10(Ki)
endpoint label: log10(Ki) (log10 of the value in nM)

| molecule | log10(Ki) |
| --- | --- |
| C[C@](Cc1c[nH]c2ccccc12)(NC(=O)OC1C2CC3CC(C2)CC1C3)C(=O)NCCC(=O)OCc1ccccc1 (some centres unmarked) [Example 7] | 2.48 |
| C[C@](Cc1c[nH]c2ccccc12)(NC(=O)OC1C2CC3CC(C2)CC1C3)C(=O)NCC(=O)O (some centres unmarked) [Example 4] | 3.18 |
| COC(=O)CCNC(=O)[C@H](CCSC)NC(=O)[C@@](C)(Cc1c[nH]c2ccccc12)NC(=O)OC1C2CC3CC(C2)CC1C3 (some centres unmarked) [Example 12] | 1.48 |
| COC(=O)CCCNC(=O)[C@@](C)(Cc1c[nH]c2ccccc12)NC(=O)OC1C2CC3CC(C2)CC1C3 (some centres unmarked) [Example 1] | 1.91 |
| C[C@](Cc1c[nH]c2ccccc12)(NC(=O)OC1C2CC3CC(C2)CC1C3)C(=O)NCCC(=O)O (some centres unmarked) [Example 6] | 3.64 |
